Reported EC50 values for a set of binders
TEST SYSTEM: Receptor-binding domain (RBD) of the SARS-CoV-2 spike protein, WA01/2020 strain (SARS-CoV-2, WA01/2020 strain, UniProt P0DTC2 319-541)
PROTOCOL NOTES: dose-response ELISA on coated antigen
Give the value, in units of nM, as a plain number.

{"BINDER": "antibody 4441 (antibody, V domains shown) VH: EVQLVESGGGLVQPGRSLRLSCAASGLTFEDYAMHWVRQPPGKGLEWVSGVSWNSGTIGYADSVKGRFTISRDNAKNSLYLHMRSLGAEDTAMYYCAKDMGGRFSFFSLENDAFDIWGQGTMVIVSS VL: SYELTQPPSVSVSPGQTARITCSGDALPKQSTYWYQQKPGQAPVLVIYKDIERPSGIPERFSGSSSGTTVTLTISGVQAEDEADYYCQSADSSDTYVFGTGTKVTVL", "EC50, nM": 0.05}

In: Look up EC50 for this binder: antibody 2892 (antibody, V domains shown) VH: QVQLVQSGAEVKKPGSSVKVSCKASGDAFISYAISWVRQAPGQGLEWMGGIIPIFGTANYAQKFQGRVTISADESTSTAYMELSRLRSEDTAVYYCARGGPEPYGSGSGYTPRYNWFDPWGQGTLVTVSS VL: QSALTQPRSVSGSPGQSVTISCTGTSSDVGGYNYVSWYQQHPGKAPKFMIYDVNRRPSGVPDRFSGSKSGNTASLTISGLQAEDEADYYCCSYAGTYTWVFGGGTKLTVL
Out: 0.089

In: May I ask what EC50 has been recorded for antibody 1213 (antibody, V domains shown) VH: QMQLVQSGAEVKKTGSSVKVSCEASENTFTNRYLHWVRQAPGQALEWMGWITPFQGNTHYAQKFQDRVTITRDRSMNTVYMELSSLRSEDTAIYYCASGGQYGPGSYYFEFWGQGTLVTVSS VL: EIVMTQSPATLSVSPGERATLSCRASQSIRNNLAWYRQKPGQAPRLLIYGASTRAAGVPARFSGSGSGTEFTLTISSLQSEDFAVYYCQQYINWPPLTFGGGTKVEIK ?
Out: 0.051
